This collection of values is drawn from ChEMBL document CHEMBL1201862.

As shown below, each of these compounds has a reported GI50 value.
System: OVCAR-8
ASSAY_DETAILS: NCI tumour cell line growth inhibition, 48 h
Activity calls are given as the source filed them. Cut-off read from the data, not from the text of the source: active = GI50 up to about 1.1 µM and inactive = higher.

Q: Tell me GI50 reported for COc1ccc(C2=CC3CCC2C3)cc1 (stereo not given)
Ans: > 100 µM (inactive)

----------
System: LOX IMVI
ASSAY_DETAILS: NCI tumour cell line growth inhibition, 48 h
Active and inactive are the calls of the source. No stated cut-off is given here; in the data, active = GI50 up to about 1.1 µM and inactive = higher.
Your reply should match one of these outcome classes. active, inactive

{"COMPOUND": "S=c1nc2c(c[nH]1)C1c3ccccc3C2c2ccccc21", "ANSWER_LABEL": "inactive"}
{"COMPOUND": "NNC(=O)c1ccc(OCc2nc3ccccc3[nH]2)cc1", "ANSWER_LABEL": "inactive"}
{"COMPOUND": "O=[N+]([O-])c1cccc(-c2ncnc(-c3cccc([N+](=O)[O-])c3)n2)c1", "ANSWER_LABEL": "inactive"}
{"COMPOUND": "CC(=O)C1(c2ccccc2)CCCN(C)CC1 (centres undefined)", "ANSWER_LABEL": "inactive"}
{"COMPOUND": "COC(=O)C1=C(C)N(NC(N)=O)C2(N)N(NC(N)=O)C(C)=C(C(=O)OC)C12C#N (centres undefined)", "ANSWER_LABEL": "inactive"}

Q: Each compound tested received a call. Report the one for CC1OC(O[C@@H]2C=C3CC[C@@H]4[C@H](CC[C@]5(C)[C@@H](c6ccc(=O)oc6)CC[C@]45O)[C@@]3(C)CC2)C(O)C(O)C1O (some centres undefined) .
Ans: active

Q: Each compound tested received a call. Report the one for COc1ccc(N2C=Nn3c(nc4sc(C)c(C)c4c3=O)C2)cc1 .
Ans: inactive

Q: Each compound tested received a call. Report the one for NCCCN1CCN(CC(=O)O)CCN(CCCN)CCN(CC(=O)O)CC1 .
Ans: inactive

Q: Each compound tested received a call. Report the one for CC1NOC(=O)C1/N=N/c1ccccc1Cl (centres undefined) .
Ans: inactive

----------
Test system: ACHN
ASSAY_DETAILS: NCI tumour cell line growth inhibition, 48 h
Active and inactive are the calls of the source. No stated cut-off is given here; in the data, active = GI50 up to about 1.1 µM and inactive = higher.
As shown below, each of these compounds has a reported GI50 value.

{"COMPOUND": "COc1ccc(N2C=Nn3c(nc4sc(C)c(C)c4c3=O)C2)cc1", "GI50": "> 100 µM (inactive)"}
{"COMPOUND": "C[C@]12C[C@@H](OC(=O)[C@]1(C)O)[C@@H]([C@]1(O)CC[C@H]3[C@@H]4C[C@H]5O[C@]56C[C@H]5O[C@H]5C(=O)[C@]6(C)[C@H]4CC[C@@]31C)C2", "GI50": "> 50 µM (inactive)"}
{"COMPOUND": "C#C[C@]1(O)CC[C@H]2[C@@H]3CCC4=C/C(=N\\OCCN5CCCCC5)CC[C@]4(C)[C@H]3CC[C@@]21C", "GI50": "8.3 µM (inactive)"}
{"COMPOUND": "S=C1N(c2ccc(Cl)cc2)C2=C(/N=N/c3ccccc3)C(=Nc3ccccc3S2)N1c1ccccn1", "GI50": "14.5 µM (inactive)"}
{"COMPOUND": "O=C(c1ccccc1)c1c(CC(O)c2cccnc2)n(C(=O)c2ccccc2)c2ccccc12 (stereo not drawn)", "GI50": "22.9 µM (inactive)"}
{"COMPOUND": "S=c1nc2c(c[nH]1)C1c3ccccc3C2c2ccccc21", "GI50": "61.2 µM (inactive)"}
{"COMPOUND": "NCCCC[C@H](N)C(=O)Nc1ccc(-c2nc3ccccc3s2)cc1Cl", "GI50": "13.4 µM (inactive)"}

Could you now consider this next compound?
Q: Tell me GI50 reported for CCCCCCCCCCCCCCN
Ans: > 100 µM (inactive)
